- System: L1210 leukemia ip in BDF1 mice, survival T/C
- experiment: NCI In Vivo Anticancer Drug Screen. Data for tumor model L1210 Leukemia (intraperitoneal) in B6D2F1 (BDF1) mice
- settings: endpoint: mean survival time; dose: 400.0 mg/kg/injection; schedule: Q04DX003 (ip); vehicle: saline with Tween-80; higher = longer survival
Toxic doses and inconclusive results are not listed.
Collected T/C values appear next to each entry.
reported-property: T/C

# compound, observed-measurement
measured = [
    ("CCOC(=O)c1cnn(C(N)=S)c1N", "96 % of control"),
    ("Cc1nc2cccc3ccc4c5ccccc5cc1c4c32", "87 % of control"),
    ("CCCC(C)C(C#N)C(=O)OCC (configuration not stated)", "105 % of control"),
    ("NC(=O)C1=CN(Cc2ccccc2)C=CC1", "94 % of control"),
    ("O=c1oc(-c2ccccc2)nc2cc(Cl)ccc12", "90 % of control"),
    ("CC(=O)Nc1ccc2c(c1)C(NC(=O)/C=C\\C(=O)O)c1ccccc1-2 (configuration not stated)", "107 % of control"),
    ("O=C(c1ccccc1)c1ccc(C(=O)c2ccccc2)c2c1C(=O)c1ccccc1C2=O", "98 % of control"),
    ("CN(C)c1ccc(N=Nc2ccc(C(C)(C)C)cc2)cc1", "96 % of control"),
    ("c1ccc(-c2nnc3oc(-c4ccco4)nn23)cc1", "94 % of control"),
    ("CC(=O)C(C(c1ccccc1)N1CCOCC1)N1CCOCC1 (configuration not stated)", "93 % of control"),
    ("O=C1NC(=O)c2ncccc21", "100 % of control"),
    ("CC(=O)NC1C(OC(C)=O)OC(COC(c2ccccc2)(c2ccccc2)c2ccccc2)C(OS(C)(=O)=O)C1OC(C)=O (configuration not stated)", "88 % of control"),
    ("COC1=CC(=O)C(C2CC(=O)c3c(O)cc(OC4OC(COC5OC(C)C(O)C(O)C5O)C(O)C(O)C4O)cc3O2)=CC1=O (configuration not stated)", "101 % of control"),
    ("COC(=O)CCC(C(=O)CN1C(=O)c2ccccc2C1=O)N1C(=O)c2ccccc2C1=O (configuration not stated)", "92 % of control"),
    ("COc1ccc2[nH]c3c(C)cc(C=O)c(C)c3c2c1", "96 % of control"),
    ("c1cc2c3c(c1)CCC3CCC2 (configuration not stated)", "97 % of control"),
    ("OC1CC2C=C(c3ccccc3)C1C2 (configuration not stated)", "88 % of control"),
    ("CC(=O)Nc1cccc(/C=C/C=C/c2ccc([N+](=O)[O-])cc2)c1", "90 % of control"),
    ("C#CC1(OC(C)=O)CCCCC1", "93 % of control"),
    ("CCCC(C)(C)C(=O)Nc1cccc(O)c1", "92 % of control"),
    ("COC1CC(OS(=O)(=O)c2ccc(C)cc2)C(O)C(C)O1 (configuration not stated)", "97 % of control"),
    ("O=C1C(Br)(Br)CCCCC1(c1ccccc1)c1ccccc1", "87 % of control"),
    ("N#[N+]c1c(C(=O)O)[nH]c(=O)[nH]c1=O", "103 % of control"),
    ("CCOC(=O)Cc1cn(C)c2ccccc12", "96 % of control"),
    ("CC(=O)N(CC(=O)O)c1ccccc1", "98 % of control"),
    ("C(=N\\n1cnnc1)/c1ccc(/C=N/n2cnnc2)cc1", "98 % of control"),
    ("Cc1ccc(S(=O)(=O)N/N=C/C(O)C(O)C(O)CO)cc1 (configuration not stated)", "96 % of control"),
    ("CC(=O)Nc1ccc(OC(C)=O)cc1", "116 % of control"),
    ("O=C(NC1CCCCC1)c1ccc2ccccc2c1O", "95 % of control"),
    ("Nc1ncnc(N)c1NC(=O)c1ccc(-c2ccccc2)cc1", "86 % of control"),
    ("NC(=S)N=Nc1c(O)n2c3c(cccc13)CCc1ccccc1-2", "94 % of control"),
    ("O=C(O)CCC(=O)/C=C1/Nc2ccccc2C1=O", "88 % of control"),
    ("O=C(/C=C/c1ccccc1)NC(=S)Nc1ccccc1C(F)(F)F", "91 % of control"),
    ("CCOC(COC(=O)c1ccccc1C(=O)O)c1ccccc1 (configuration not stated)", "92 % of control"),
    ("c1ccc2c(c1)Cc1cc3ccccc3nc1-2", "98 % of control"),
    ("O=[N+]([O-])c1ccc(C(=Nc2ccccc2)Nc2ccccc2)cc1", "98 % of control"),
    ("CCOC(=O)CCCc1ccccc1", "93 % of control"),
    ("CCOc1nc(N)nc2c1-c1ccccc1CC2", "90 % of control"),
    ("CCCCCCCC/C=C\\CCCCCCCC(=O)OCCSCCOC(C)=O", "94 % of control"),
    ("COc1cc(/C=C2/SC(=S)NC2=O)cc(OC)c1OC", "117 % of control"),
    ("CCC(=O)C(CC)c1cccc(OC)c1 (configuration not stated)", "97 % of control"),
    ("Cc1ccc(S(=O)(=O)c2ccc(F)cc2)cc1", "97 % of control"),
    ("COC(=O)c1cc(Br)ccc1OCC(=O)Nc1ccccc1", "91 % of control"),
    ("O=C1c2ccccc2C(=O)N1C/C=C/Cl", "101 % of control"),
    ("OC1(C2CCCCC2)C2CCCC1CCC2 (configuration not stated)", "103 % of control"),
    ("CC1CCC(OC(C[N+](=O)[O-])C(Cl)(Cl)Cl)CC1 (configuration not stated)", "104 % of control"),
    ("CC(C)C(=O)OCP(=O)(COC(=O)C(C)C)COC(=O)C(C)C", "93 % of control"),
    ("COC1(OC)CCP(=S)(c2ccccc2)CC1C#N (configuration not stated)", "92 % of control"),
    ("CN(C)c1ccc(C=NCCN=Cc2ccc(N(C)C)cc2)cc1", "95 % of control"),
    ("OC(O)C(F)(F)F", "105 % of control"),
    ("O=C(Nc1cccc2c1C(=O)c1cccc(Cl)c1C2=O)c1ccccc1", "86 % of control"),
    ("ClC(Cl)(Cl)C1OCOC(C(Cl)(Cl)Cl)O1 (configuration not stated)", "101 % of control"),
]

====

- Test system: L1210 leukemia ip in BDF1 mice, survival T/C
- experiment: NCI In Vivo Anticancer Drug Screen. Data for tumor model L1210 Leukemia (intraperitoneal) in B6D2F1 (BDF1) mice
- settings: endpoint: mean survival time; dose: 50.0 mg/kg/injection; schedule: Q01DX001 (ip); vehicle: saline; higher = longer survival
Inconclusive results and toxic doses are left out.
reported-property: T/C

# molecule, reported-property, observed-measurement
measured = [
    ("COc1ccc(CN2CCCN(Cc3ccc(OC)cc3OC)C2c2cc(Cl)ccc2O)c(OC)c1", "T/C", "95 % of control"),
    ("Cc1ccc(S(=O)(=O)NC(=S)Nc2ccccc2)cc1", "T/C", "98 % of control"),
    ("OCC(F)(F)C(F)(F)C(F)(F)C(F)F", "T/C", "94 % of control"),
    ("Oc1ccccc1-n1c(-c2ccccc2)ccc1-c1ccccc1", "T/C", "90 % of control"),
    ("OC(CNc1ccccc1)CN1CCN(CC(O)CNc2ccccc2)CC1 (stereo not given)", "T/C", "105 % of control"),
    ("CCCOB(OCCC)OCCC", "T/C", "95 % of control"),
    ("O=C1C(c2c[nH]c3ccccc23)=Nc2ccc(Br)cc21", "T/C", "104 % of control"),
    ("COCC/C(COC)=N\\N=C(/CCOC)COC", "T/C", "97 % of control"),
    ("CN(C)CCCn1c(=O)c2ccccc2c2ccccc21", "T/C", "101 % of control"),
    ("CCN(CC)CCC#N", "T/C", "94 % of control"),
    ("Nc1c(Cl)ncnc1Nc1ccc(C(=O)O)cc1", "T/C", "96 % of control"),
    ("CC(C)c1nc2c(c(=O)n(C)c(=O)n2C)n1C", "T/C", "102 % of control"),
    ("O=C1c2ccccc2C(=O)C1N=Nc1ccccc1", "T/C", "102 % of control"),
    ("O=C(CCCC(=O)N/N=C/c1ccccc1O)N/N=C\\c1ccccc1O", "T/C", "87 % of control"),
    ("COc1ccc2c(c1)c(CC(=O)O)c(C)n2C(=O)c1ccc(Cl)cc1", "T/C", "88 % of control"),
]
